Values from ChEMBL document CHEMBL1129599

Biological target: Integrin alpha-IIb/beta-3 (Homo sapiens, UniProt P05106+P08514)
Sequence (P05106 27-788 limits assumed): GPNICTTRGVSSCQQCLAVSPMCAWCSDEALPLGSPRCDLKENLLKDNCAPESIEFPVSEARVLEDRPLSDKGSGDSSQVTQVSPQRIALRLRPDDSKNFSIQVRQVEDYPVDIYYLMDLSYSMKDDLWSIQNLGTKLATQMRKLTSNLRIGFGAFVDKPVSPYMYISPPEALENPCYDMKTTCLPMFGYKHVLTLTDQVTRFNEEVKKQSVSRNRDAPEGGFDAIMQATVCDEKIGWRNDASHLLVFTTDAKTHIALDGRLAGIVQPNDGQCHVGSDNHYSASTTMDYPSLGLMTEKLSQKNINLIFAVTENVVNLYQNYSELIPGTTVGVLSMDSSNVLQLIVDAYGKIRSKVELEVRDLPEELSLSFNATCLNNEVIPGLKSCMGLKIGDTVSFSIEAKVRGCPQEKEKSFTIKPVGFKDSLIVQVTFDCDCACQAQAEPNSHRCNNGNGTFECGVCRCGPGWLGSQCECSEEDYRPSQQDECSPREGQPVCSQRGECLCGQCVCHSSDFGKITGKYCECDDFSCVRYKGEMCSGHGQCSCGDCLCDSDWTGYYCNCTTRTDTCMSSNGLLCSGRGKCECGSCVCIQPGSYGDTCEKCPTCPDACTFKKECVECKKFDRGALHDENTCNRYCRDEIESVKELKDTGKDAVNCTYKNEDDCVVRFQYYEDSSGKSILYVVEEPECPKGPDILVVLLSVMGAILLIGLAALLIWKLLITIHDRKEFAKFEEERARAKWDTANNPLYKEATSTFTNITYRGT
Sequence (P08514 32-887 limits assumed): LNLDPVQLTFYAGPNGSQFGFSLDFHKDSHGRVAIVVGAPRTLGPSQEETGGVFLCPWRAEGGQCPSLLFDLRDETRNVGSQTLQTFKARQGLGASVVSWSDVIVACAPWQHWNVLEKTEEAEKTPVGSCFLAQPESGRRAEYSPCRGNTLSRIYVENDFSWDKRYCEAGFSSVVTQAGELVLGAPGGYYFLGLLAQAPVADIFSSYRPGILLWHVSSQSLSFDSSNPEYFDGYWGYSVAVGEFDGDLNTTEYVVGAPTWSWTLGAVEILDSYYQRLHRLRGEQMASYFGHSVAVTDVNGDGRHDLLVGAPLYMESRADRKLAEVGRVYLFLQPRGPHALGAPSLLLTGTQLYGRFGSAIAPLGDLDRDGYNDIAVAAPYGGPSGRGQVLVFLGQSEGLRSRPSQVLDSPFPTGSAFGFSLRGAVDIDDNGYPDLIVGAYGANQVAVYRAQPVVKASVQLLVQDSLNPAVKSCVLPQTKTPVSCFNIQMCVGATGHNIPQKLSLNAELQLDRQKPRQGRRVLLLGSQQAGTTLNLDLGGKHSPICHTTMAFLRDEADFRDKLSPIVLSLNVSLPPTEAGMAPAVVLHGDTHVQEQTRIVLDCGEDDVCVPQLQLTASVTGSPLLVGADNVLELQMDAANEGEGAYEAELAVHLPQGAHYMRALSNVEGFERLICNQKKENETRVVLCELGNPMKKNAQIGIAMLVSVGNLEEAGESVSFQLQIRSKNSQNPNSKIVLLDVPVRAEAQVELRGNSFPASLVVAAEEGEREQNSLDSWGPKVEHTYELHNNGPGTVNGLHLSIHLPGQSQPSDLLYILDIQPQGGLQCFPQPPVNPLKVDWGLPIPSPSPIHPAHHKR
Sequence (P08514 891-1039 limits assumed): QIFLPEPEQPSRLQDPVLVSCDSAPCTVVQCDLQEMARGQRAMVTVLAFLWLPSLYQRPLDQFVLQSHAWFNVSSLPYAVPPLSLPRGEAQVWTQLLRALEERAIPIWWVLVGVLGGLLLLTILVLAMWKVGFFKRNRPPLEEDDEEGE
Experiment: Inhibition of alphaIIb-beta3 integrin
Format: protein-complex assay
Below: a set of entries, each annotated with reported IC50.
EXPERIMENTAL ENDPOINT: IC50 (nM)

>>> df
                                        mol  reported_measurement
0  CC(C)C[C@H](NC(=O)[C@H](CC(=O)O)NC(=O)CCCOc1ccc(C(=N)N)cc1)C(=O)O                   135
1  CN(C(=O)[C@H](CC(=O)O)NC(=O)CCCOc1ccc(C(=N)N)cc1)[C@@H](Cc1ccc(O)cc1)C(=O)O                   129
2  CC(C)(C)C[C@H](NC(=O)[C@H](CC(=O)O)NC(=O)CCCOc1ccc(C(=N)N)cc1)C(=O)O                   229
3  CC(C)[C@H](NC(=O)[C@H](CC(=O)O)NC(=O)CCCOc1ccc(C(=N)N)cc1)C(=O)O                   110

* * *

The reader will find reported Retention time values listed item by item below.
Assay: The retention time in min (25 uM)
Assay type: ADME
EXPERIMENTAL ENDPOINT: Retention time (min)

In [3]: df
Out[3]:
                                        mol  units_of_measure  reported_measurement
0  N=C(N)c1ccc(OCCCC(=O)N[C@@H](CC(=O)O)C(=O)N[C@@H](Cc2ccc(O)cc2)C(=O)O)cc1               min                 10.54
1  COC(=O)[C@H](Cc1ccc(O)cc1)NC(=O)[C@H](CC(=O)O)NC(=O)CCCCOc1ccc(C(=N)N)cc1               min                 20.18
2  CCCC[C@H](NC(=O)[C@H](CC(=O)O)NC(=O)CCCOc1ccc(C(=N)N)cc1)C(=O)O               min                 11.11
3  CC(C)(C)C[C@H](NC(=O)[C@H](CC(=O)O)NC(=O)CCCOc1ccc(C(=N)N)cc1)C(=O)O               min                 14.11
4  N=C(N)c1ccc(OCCCCC(=O)N[C@@H](CC(=O)O)C(=O)N[C@@H](Cc2ccc(O)cc2)C(=O)O)cc1               min                 12.79
5  N=C(N)c1ccc(OCCCCC(=O)N[C@@H](CC(=O)O)C(=O)N[C@@H](CO)C(=O)O)cc1               min                 3.324
6  CC[C@H](C)[C@H](NC(=O)[C@H](CC(=O)O)NC(=O)CCCOc1ccc(C(=N)N)cc1)C(=O)O               min                 9.413
7  CN(C(=O)[C@H](CC(=O)O)NC(=O)CCCOc1ccc(C(=N)N)cc1)[C@@H](Cc1ccc(O)cc1)C(=O)O               min                 14.85

* * *

Experiment: Micelle/water partition coefficient
Assay type: ADME
Conditions: buffer
EXPERIMENTAL ENDPOINT: Log Pmw

                                        mol  experimental_endpoint  reported_measurement
0  CN(C(=O)[C@H](CC(=O)O)NC(=O)CCCCOc1ccc(C(=N)N)cc1)[C@@H](Cc1ccc(O)cc1)C(=O)O                Log Pmw                     2
1  N=C(N)c1ccc(OCCCC(=O)N[C@@H](CC(=O)O)C(=O)N[C@@H](Cc2ccc(O)cc2)C(=O)O)cc1                Log Pmw                  1.74
2  N=C(N)c1ccc(OCCCCC(=O)N[C@@H](CC(=O)O)C(=O)N[C@@H](CO)C(=O)O)cc1                Log Pmw                 0.904
3  CC(C)(C)C[C@H](NC(=O)[C@H](CC(=O)O)NC(=O)CCCOc1ccc(C(=N)N)cc1)C(=O)O                Log Pmw                  1.59

* * *

Experiment: The retention time in min (35 uM)
Type: ADME
Collected Retention time values appear next to each entry.
EXPERIMENTAL ENDPOINT: Retention time (min)

>>> df
                                        mol  reported_measurement
0  CCCC[C@H](NC(=O)[C@H](CC(=O)O)NC(=O)CCCOc1ccc(C(=N)N)cc1)C(=O)O                 9.491
1  N=C(N)c1ccc(OCCCCC(=O)N[C@@H](CC(=O)O)C(=O)N[C@@H](Cc2ccc(O)cc2)C(=O)O)cc1                 10.57
2  CN(C(=O)[C@H](CC(=O)O)NC(=O)CCCCOc1ccc(C(=N)N)cc1)[C@@H](Cc1ccc(O)cc1)C(=O)O                 14.24
3  CN(C(=O)[C@H](CC(=O)O)NC(=O)CCCOc1ccc(C(=N)N)cc1)[C@@H](Cc1ccc(O)cc1)C(=O)O                 11.82

* * *

Test: The retention time in min (40 uM)
Type: ADME
EXPERIMENTAL ENDPOINT: Retention time (min)

>>> print(df.to_string())
                                        mol  experimental_endpoint  reported_measurement
0  N=C(N)c1ccc(OCCCCC(=O)N[C@@H](CC(=O)O)C(=O)N[C@@H](Cc2ccc(O)cc2)C(=O)O)cc1         Retention time                  9.72
1  CC(C)(C)C[C@H](NC(=O)[C@H](CC(=O)O)NC(=O)CCCOc1ccc(C(=N)N)cc1)C(=O)O         Retention time                 11.19
2  CN(C(=O)[C@H](CC(=O)O)NC(=O)CCCCOc1ccc(C(=N)N)cc1)[C@@H](Cc1ccc(O)cc1)C(=O)O         Retention time                 12.91
3  CC(C)[C@H](NC(=O)[C@H](CC(=O)O)NC(=O)CCCOc1ccc(C(=N)N)cc1)C(=O)O         Retention time                 5.207

* * *

Target: Integrin alpha-IIb/beta-3 (Homo sapiens, UniProt P05106+P08514)
Assay: Inhibition of binding to integrin alphaIIb-beta3
Format: protein-complex assay
EXPERIMENTAL ENDPOINT: IC50 (µM)

                                        mol  units_of_measure  reported_measurement
0  COC(=O)[C@H](Cc1ccc(O)cc1)NC(=O)[C@H](CC(=O)O)NC(=O)CCCCOc1ccc(C(=N)N)cc1                µM                  4.47

* * *

Readings of Log IC50 for the listed compounds
Assay: Inhibition of alphaIIb-beta3 integrin
EXPERIMENTAL ENDPOINT: Log IC50

>>> print(df.to_string())
                                        mol  reported_measurement
0  CC(C)[C@H](NC(=O)[C@H](CC(=O)O)NC(=O)CCCCOc1ccc(C(=N)N)cc1)C(=O)O                 -6.64
1  CC[C@H](C)[C@H](NC(=O)[C@H](CC(=O)O)NC(=O)CCCOc1ccc(C(=N)N)cc1)C(=O)O                 -6.85
2  N=C(N)c1ccc(OCCCCC(=O)N[C@@H](CC(=O)O)C(=O)N[C@@H](Cc2ccc(O)cc2)C(=O)O)cc1                 -6.19
3  CN(C(=O)[C@H](CC(=O)O)NC(=O)CCCCOc1ccc(C(=N)N)cc1)[C@@H](Cc1ccc(O)cc1)C(=O)O                 -6.57

* * *

Test: The retention time in min (35 uM)
Assay type: ADME
# Retention time values compiled below
EXPERIMENTAL ENDPOINT: Retention time (min)

>>> print(df.to_string())
                                        mol  units_of_measure  reported_measurement
0  CC(C)C[C@H](NC(=O)[C@H](CC(=O)O)NC(=O)CCCOc1ccc(C(=N)N)cc1)C(=O)O               min                  8.25
1  CC[C@H](C)[C@H](NC(=O)[C@H](CC(=O)O)NC(=O)CCCOc1ccc(C(=N)N)cc1)C(=O)O               min                  8.25
2  N=C(N)c1ccc(OCCCC(=O)N[C@@H](CC(=O)O)C(=O)N[C@@H](Cc2ccc(O)cc2)C(=O)O)cc1               min                  8.79
3  COC(=O)[C@H](Cc1ccc(O)cc1)NC(=O)[C@H](CC(=O)O)NC(=O)CCCCOc1ccc(C(=N)N)cc1               min                 15.56
4  N=C(N)c1ccc(OCCCCC(=O)N[C@@H](CC(=O)O)C(=O)N[C@@H](CO)C(=O)O)cc1               min                 3.238
5  CC(C)[C@H](NC(=O)[C@H](CC(=O)O)NC(=O)CCCCOc1ccc(C(=N)N)cc1)C(=O)O               min                 6.832
6  CC(C)[C@H](NC(=O)[C@H](CC(=O)O)NC(=O)CCCOc1ccc(C(=N)N)cc1)C(=O)O               min                 5.347
